Observed IC50 values for PIK3CA (human) are listed in what follows.

Worked cases, IC50 given:
INSERT INTO assay_data (compound, measured_parameter, value_reported) VALUES
  ('C[C@H](NC(=O)c1c(N)nn2cccnc12)c1cc2cccc(C#CCNC(=O)C3CCC(=O)C3)c2c(=O)n1-c1ccccc1 (some centres not stated)', 'IC50', '0.1 to 1 µM'),
  ('C[C@H](NC(=O)c1c(N)nn2cccnc12)c1cc2cccc(C#CCNC(=O)[C@@H]3CCC(=O)O3)c2c(=O)n1-c1ccccc1', 'IC50', '0.1 to 1 µM'),
  ('C[C@H](NC(=O)c1nccnc1N)c1nc2cccc(Cl)c2c(=O)n1-c1ccccc1', 'IC50', '≥ 10 µM'),
  ('COc1cccc(-c2cnc(N)c(C(=O)N[C@@H](C)c3cc4cccc(Cl)c4c(=O)n3-c3ccccc3)n2)c1', 'IC50', '≥ 10 µM'),
  ('CC(=O)N(C)Cc1cccc2cc([C@H](C)NC(=O)c3c(N)nn4cccnc34)n(-c3ccccc3)c(=O)c12', 'IC50', '≥ 10 µM'),
  ('COc1cccc2cc([C@H](C)NC(=O)c3c(N)nn4cccnc34)n(-c3ccccc3)c(=O)c12', 'IC50', '≥ 10 µM'),
  ('C[C@H](NC(=O)c1nc(-c2ccc(S(C)(=O)=O)cc2)cnc1N)c1cc2cccc(Cl)c2c(=O)n1-c1ccccc1', 'IC50', '≥ 10 µM'),
  ('C[C@H](NC(=O)c1nc(-c2cncc(NS(C)(=O)=O)c2)cnc1N)c1cc2cccc(Cl)c2c(=O)n1-c1ccccc1', 'IC50', '0.1 to 1 µM');

QUERY: Fill in: IC50 of C[C@H](NC(=O)c1c(N)nn2cccnc12)c1cc2cccc(Cl)c2c(=O)n1CCN(C)C is ___
RESULT: ≥ 10 µM

QUERY: Also C[C@H](NC(=O)c1c(N)nn2cccnc12)c1cc2cccc(N3CCOCC3)c2c(=O)n1-c1ccccc1 ?
RESULT: ≥ 10 µM

QUERY: // repeat for C[C@H](NC(=O)c1c(N)nn2cccnc12)c1cc2cccc(N3CCN(C)CC3)c2c(=O)n1-c1ccccc1 and report
RESULT: ≥ 10 µM
